Tested on: Huh7 cells expressing a subgenomic RNA replicon of Con1 (genotype 1b) sequence origin
Test Summary: microbe, parasite or virus in culture
Protocol Conditions: Hepatitis C virus, Huh-7
Where a name gives a salt, the structure may show the parent alone.
Measured Metric: pIC50
Give bare numbers, as −log10 of the molar value.

CC(C=NNC(=N)N)=NNC(=N)N [dihydrochloride hydrate, reference compound] :: 4.97
CC1=C(O)C(=O)C=C2C1=CC=C1[C@@]2(C)CC[C@@]2(C)[C@@H]3C[C@](C)(C(=O)O)CC[C@]3(C)CC[C@]12C [Celastrol, reference compound] :: 6.35
CC(C)n1c(/C=C/C(O)CC(O)CC(=O)O)c(-c2ccc(F)cc2)c2ccccc21 (stereo not drawn) [Fluvastatin (e.g., sodium), fluvastatin, reference compound] :: 4.65

Please give pIC50 for each item listed below.
1. CC(=O)O[C@H]1C(=O)[C@@]2(C)[C@H]([C@H](OC(=O)c3ccccc3)[C@]3(O)C[C@H](OC(=O)[C@H](O)[C@@H](NC(=O)c4ccccc4)c4ccccc4)C(C)=C1C3(C)C)[C@]1(OC(C)=O)CO[C@@H]1C[C@@H]2O [Paclitaxel, reference compound]
2. CCOc1cc(CC(=O)N[C@@H](CC(C)C)c2ccccc2N2CCCCC2)ccc1C(=O)O [Repaglinide, reference compound]
3. CCOc1cc(N)c(Cl)cc1C(=O)NCC1CN(Cc2ccc(F)cc2)CCO1 (stereo not drawn) [Mosapride (e.g., citrate), mosapride, reference compound]
4. Nc1ncnc2c1ncn2[C@@H]1O[C@H](CO)[C@@H](O)[C@@H]1O [Vidarabine, vidarabine, reference compound]

1: 8.04; 2: 4.91; 3: 4.96; 4: 4.57

Please give pIC50 for each item listed below.
1. COC(=O)Nc1nc2ccc([S+]([O-])c3ccccc3)cc2[nH]1 (stereo not drawn) [Oxfendazole, reference compound]
2. CC(C)N1CCN(c2ccc(OCC3COC(Cn4cncn4)(c4ccc(Cl)cc4Cl)O3)cc2)CC1 (stereo not drawn) [Terconazole, reference compound]
3. CN[C@H]1CC[C@@H](c2ccc(Cl)c(Cl)c2)c2ccc(NC(=O)c3ccccc3)cc21 [Sertraline A-Ring Reverse Benzamide]

1. 5.14
2. 5.59
3. 5.53

Please give pIC50 for each item listed below.
1. O=C1C(CC[C@@H](O)c2ccc(F)cc2)[C@@H](c2ccc(O)cc2)N1c1ccc(F)cc1 (stereo partly drawn) [Ezetimibe, ezitamibe, reference compound]
2. CC1=C(/C=C/C(C)=C/C=C/C(C)=C/C=C/C=C(C)/C=C/C=C(C)/C=C/C2=C(C)CCCC2(C)C)C(C)(C)CCC1 [Beta-Carotene]

1. 5.38
2. 4.73

----------
System: Huh7 cells expressing a subgenomic RNA replicon of Con1 (genotype 1b) sequence origin
Test Summary: microbe, parasite or virus in culture
Protocol Conditions: Hepatitis C virus, Huh-7
Measured Metric: pIC50
Answers are plain numbers, as −log10 of the molar value.

Please give pIC50 for each item listed below.
1. CCN(CC)CCO[C@H]1CC[C@@]2(C)C(=CC[C@@H]3[C@@H]2CC[C@]2(C)C(=O)CC[C@@H]32)C1 [Example U18666A, reference compound]
2. CCCCCCCCCCCCCCOc1ccc(C(=O)O)o1 [TOFA, 5-(tetradecyloxy)-2-furancarboxylic acid, reference compound]
3. C[C@@H]1C[C@@H]([C@H](O)CC2CC(=O)NC(=O)C2)C(=O)[C@@H](C)C1 [Cycloheximide, reference compound]

7.70
5.26
6.74
